tested on: NCI-H1395; assay: relative viability (nuclei count vs DMSO), 5 days (fraction); higher = more cells survive; conditions: first compound 0.4 µM
PROPERTY_LABEL: relative viability
Lab note: write the figure by itself, no unit.

[[record]]
compound = "COc1cc(N2CCC(C(N)=O)CC2)ccc1Nc1nc(N)c(Cl)c(Nc2ccccc2S(=O)(=O)C(C)C)n1 [HG-5-88-01] + Cc1nc(Nc2ncc(C(=O)Nc3c(C)cccc3Cl)s2)cc(N2CCN(CCO)CC2)n1 [Dasatinib] (partner 0.075 µM)"
measured_result = 0.393

[[record]]
compound = "C[C@@H]1CN(CC(=O)Nc2ccc3c(c2)Cc2cccc(-c4cc(=O)cc(N5CCOCC5)o4)c2S3)C[C@H](C)O1 + COc1cccc2cc(-c3nc([C@H]4CC[C@H](C(=O)O)CC4)n4ncnc(N)c34)[nH]c12 [OSI-027] (partner 0.5 µM)"
measured_result = 0.539

[[record]]
compound = "COc1cc(N2CCC(C(N)=O)CC2)ccc1Nc1nc(N)c(Cl)c(Nc2ccccc2S(=O)(=O)C(C)C)n1 [HG-5-88-01] + NC(=O)Nc1cc(-c2cccc(F)c2)sc1C(=O)N[C@H]1CCCNC1 [AZD7762] (partner 0.2 µM)"
measured_result = 0.418


Task: Which relative viability reading was recorded for the compound Clc1ccc(Nc2nnc(Cc3ccncc3)c3ccccc23)cc1 [Vatalanib] + Nc1ncn([C@H]2C[C@H](O)[C@@H](CO)O2)c(=O)n1 [Decitabine] (partner 2 µM) ?
Result: 0.722

Task: Which relative viability reading was recorded for the compound Clc1ccc(Nc2nnc(Cc3ccncc3)c3ccccc23)cc1 [Vatalanib] + N=C(N)NC(=N)NCCc1ccccc1 [Phenformin] (partner 250 µM) ?
Result: 0.437
